System: THRa homodimer (NR concentration 90 nM)
Experiment: PBM binding z-score (relative to random genomic background probes); higher = stronger binding; sequences stand for … in GC…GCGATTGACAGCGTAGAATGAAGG
Would you mind labelling by PBM binding z-score? At or over 0.6 is Satisfied, under is Not satisfied.

{"sequence-entry": "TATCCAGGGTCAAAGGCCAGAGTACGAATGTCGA", "category": "Satisfied"}
{"sequence-entry": "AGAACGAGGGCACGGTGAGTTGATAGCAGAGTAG", "category": "Not satisfied"}
{"sequence-entry": "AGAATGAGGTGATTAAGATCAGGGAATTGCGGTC", "category": "Not satisfied"}
{"sequence-entry": "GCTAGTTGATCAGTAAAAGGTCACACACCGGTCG", "category": "Satisfied"}
{"sequence-entry": "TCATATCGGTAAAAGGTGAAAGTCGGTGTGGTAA", "category": "Not satisfied"}

[in] Is it the case that `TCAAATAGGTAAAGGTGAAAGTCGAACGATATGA` has PBM binding z-score reaching or exceeding 0.6?
[out] Not satisfied

[in] Is it the case that `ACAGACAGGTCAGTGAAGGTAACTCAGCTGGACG` has PBM binding z-score reaching or exceeding 0.6?
[out] Not satisfied

[in] Is it the case that `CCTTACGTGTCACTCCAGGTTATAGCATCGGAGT` has PBM binding z-score reaching or exceeding 0.6?
[out] Satisfied

[in] Is it the case that `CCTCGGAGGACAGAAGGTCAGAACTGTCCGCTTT` has PBM binding z-score reaching or exceeding 0.6?
[out] Not satisfied

[in] Is it the case that `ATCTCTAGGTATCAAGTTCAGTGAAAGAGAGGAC` has PBM binding z-score reaching or exceeding 0.6?
[out] Satisfied

[in] Is it the case that `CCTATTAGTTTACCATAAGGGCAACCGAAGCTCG` has PBM binding z-score reaching or exceeding 0.6?
[out] Satisfied

[in] Is it the case that `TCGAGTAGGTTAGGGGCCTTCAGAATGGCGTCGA` has PBM binding z-score reaching or exceeding 0.6?
[out] Not satisfied

[in] Is it the case that `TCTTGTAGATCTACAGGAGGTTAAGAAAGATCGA` has PBM binding z-score reaching or exceeding 0.6?
[out] Not satisfied
